assay: Surrogate Activity-Based Plasma Stability Assay (calcium flux EC50 after incubation with 5% rat plasma); conditions: not told
Where a SMILES comes first, the peptide text is derived from it. Bridges are numbered along the chain shown (N, C = ends). [ ]: non-standard residue; d: D form. pGlu = O=C1CC[C@@H](C(=O)O)N1; Nle = CCCC[C@H](N)C(=O)O
MEASURED PROPERTY: half-life (h)
State the answer as a number, implicitly in h.

query: I have this molecule here, CCCC[C@@H]1NC(=O)[C@@H]2CCCN2C(=O)CNC(=O)[C@H](CCCCN)NC(=O)[C@@H]2CSSC[C@H](NC(=O)[C@H](CCCNC(=N)N)NC(=O)[C@@H]3CCC(=O)N3)C(=O)N[C@@H](CCCNC(=N)N)C(=O)N[C@@H](CC(C)C)C(=O)N[C@@H](CSSC[C@@H](C(=O)N[C@@H](Cc3ccccc3)C(=O)O)NC1=O)C(=O)N2 [Example 29, pE-R-C-R-L-C-C-K-G-P-Nle-C-F-OH] ([pGlu]RCRLCCKGP[Nle]CF-OH; disulfide 3-7, 6-12) , and I need its recorded half-life.
result: 3.61

Provenance of the data: patent US9982017B2
